tested on: SR leukemia; experiment: NCI-60 one-dose screen, 48 h (100 = growth as untreated, 0 = no growth, -100 = all killed); conditions: 10 µM
Compounds without any hit were thinned out: in the full panel of roughly 83,000, 20% have a hit.

| Molecule | Unit string | growth |
| --- | --- | --- |
| O=[N+]([O-])c1ccc(-c2nc(-c3ccccc3)c(-c3ccccc3)n2-c2ccc(S(=O)(=O)Nc3ncccn3)cc2)cc1 | % | 45 |
| COc1ccc2c(c1)N=C(C(=O)O)/C2=C/c1sc(Nc2ccc(O)cc2)nc1O | % | 24.9 |
| COc1cc(C2CC(c3ccccc3)=Nc3c(N)nc(N)nc3N2)ccc1Oc1nc(Nc2ccc(F)cc2)nc(N(C)C)n1 (centres undefined) | % | 2.83 |
| O=C(/C=C/Nc1ccc(F)cc1F)c1ccc2c(c1)Nc1ccccc1S2 | % | 31.7 |
| O=c1cc(-c2ccccc2)oc2cc(OCCCNCc3ccccc3)cc(O)c12 | % | -24.8 |
| Cc1noc2c(Cc3ccc([N+](=O)[O-])cc3)nn(CC(=O)N/N=C/c3ccc(Cl)cc3)c(=O)c12 | % | 88.6 |
| Cc1cc(C)nc(NS(=O)(=O)c2ccc(N/C(N)=N/c3nccc(-c4ccccc4)n3)cc2)n1 | % | 53.8 |
| COc1ccc(-c2cc(-c3cc(C(=O)c4ccccc4)n4ccc(C)cc34)nc(N)c2C#N)cc1 | % | 86.7 |
| O=C(CSc1nnc(-c2ccc3nc(-c4ccccc4)[nH]c3c2)o1)Nc1ccc(Br)cc1 | % | 32.1 |

====

Property: growth; scope: individual molecules
test system: 786-0 renal; test: NCI-60 one-dose screen, 48 h (100 = growth as untreated, 0 = no growth, -100 = all killed); conditions: 10 µM
The panel holds about 83,000 compounds, 20% with a hit somewhere; the sample as a whole holds those more often.
Recorded metric: growth (%)

| Molecule | Study target | Recorded metric | Numeric result |
| --- | --- | --- | --- |
| COC1=C[C@]23CCC(=O)N2CCc2cc4c(cc2[C@@H]3[C@@H]1OC(=O)CCCC(C)C)OCO4 | 786-0 renal | growth | 80.5 |
| N#Cc1c(NC(=O)c2ccc(C(F)(F)F)c(Cl)c2)sc2c1CCC(=O)C2 | 786-0 renal | growth | -48.2 |
| CN1C(=O)N(C)C2SC(N/N=C/c3ccc(F)cc3)=NC21 (stereo not drawn) | 786-0 renal | growth | 50.2 |
| Nc1nc(Nc2ccccc2)nn1Cc1c(Cl)cccc1Cl | 786-0 renal | growth | 27.8 |
| COc1ccc(NC(=O)CSc2nnc(-c3ccc4nc(-c5ccc(Cl)cc5)[nH]c4c3)o2)cc1 | 786-0 renal | growth | 22.5 |
| CC1=C2C(=C[C@@](C)(CO)[C@@H]2O)/C(=N\N)[C@](C)(O)C12CC2 | 786-0 renal | growth | 6.59 |
| O=C1Nc2cc(-c3ccc(NC(=O)c4cccs4)cc3)ccc2/C1=C/c1ccc[nH]1 | 786-0 renal | growth | 98.5 |
| Cc1ccc2nc3c(nc2c1)c1cc(I)ccc1n3CCN(C)C | 786-0 renal | growth | 23.6 |
| O=C(/C=C/Nc1ccc(F)cc1F)c1ccc2c(c1)Nc1ccccc1S2 | 786-0 renal | growth | 88.1 |
| COC1CC(Cn2cc(COc3ccc4ccc(=O)oc4c3)nn2)C(OCc2ccccc2)C(OCc2ccccc2)C1OCc1ccccc1 (stereo not drawn) | 786-0 renal | growth | 102 |
| C=C(C)[C@@H]1CC[C@]2(COP(=O)(OCC)OCC)CC[C@]3(C)[C@H](CC[C@@H]4[C@@](C)(CCCN)[C@H](C(=C)C)CC[C@]43C)[C@@H]12 | 786-0 renal | growth | 20.4 |
| COc1ccc(C(=O)CSc2nnc(-c3c[nH]c4ccccc34)n2-c2ccccc2)cc1 | 786-0 renal | growth | 45.2 |
| CCCS(=O)(=O)c1oc(-c2ccc(F)cc2)nc1S(=O)(=O)c1ccc(F)cc1 | 786-0 renal | growth | -52.2 |
| Cc1ccc2nc(-c3ccc(-c4nnc(SCC(=O)Nc5ccc(Br)cc5)o4)cc3)[nH]c2c1 | 786-0 renal | growth | 84.6 |
| Oc1ccc(/C=C2\CCCc3cc4ccc(O)cc4[o+]c32)c(O)c1 | 786-0 renal | growth | 24.4 |
| COc1ccc(/C=C/C(=O)c2ccc(NC(=O)CN3C(=O)NC(C)(c4ccccc4)C3=O)cc2)cc1 (stereo not drawn) | 786-0 renal | growth | 81.2 |
| CCCn1c(=O)c2[nH]c(-c3ccc(OCc4nc5ccccc5[nH]4)cc3)nc2n(CCC)c1=O | 786-0 renal | growth | -48.5 |
| O=c1oc2ccccc2cc1-c1csc(N=Nc2c(O)[nH]c3ccc(Br)cc23)n1 | 786-0 renal | growth | 12.5 |
| O=C1Nc2ccc(F)cc2/C1=C/c1cccc(OCc2ccccc2)c1 | 786-0 renal | growth | 33.7 |
| O=C1Nc2cc(Cl)ccc2/C1=C/c1cccc(OCc2ccccc2)c1 | 786-0 renal | growth | -12 |
| CN1CCN(c2ccc(Nc3nc(NCCCNC(=O)c4ccccc4)c4sccc4n3)cc2)CC1 | 786-0 renal | growth | 24.9 |
| O=C(c1ccc(O)cc1)C1[C@H](c2ccc(Br)cc2)[C@@H](c2ccccc2)NC12C(=O)Nc1ccccc12 (stereo partly drawn) | 786-0 renal | growth | 16.3 |
| COc1ccc(N(C)c2cc(C#N)nc3ccccc23)cc1/C=C/C(=O)NO | 786-0 renal | growth | -9.47 |
| CO[C@@H]1CSS[C@H]1Cn1nc(-c2ccc(Oc3ccccc3)cc2)c2c(N)ncnc21 | 786-0 renal | growth | 55.3 |
| COc1ccccc1[C@H]1C(C(=O)c2ccc(O)cc2)C2(N[C@@H]1c1ccccc1)C(=O)Nc1ccc(Br)cc12 (stereo partly drawn) | 786-0 renal | growth | 26.9 |
| CCCCCCCCCCCCCCCCCCCC(=O)NCCc1c[nH]c2ccc(OC(=O)NOCCOCCOCCOCCOCCOCCOCCOCCOCCOCCOCCOCCOCCOCCOCCOCCOCCOCCOCCOCCOCCOCCOC)cc12 | 786-0 renal | growth | 35.4 |
| C#CCNC(=O)CCC(=O)OC[C@]12CC[C@@H](C(=C)C)[C@@H]1C1CC[C@@H]3[C@@]4(C)CCCNC(C)(C)[C@@H]4CC[C@@]3(C)[C@]1(C)CC2 (stereo partly drawn) | 786-0 renal | growth | -58.3 |
| COc1ccc(-c2cc(-c3cc(C(=O)c4ccccc4)n4ccc(C)cc34)nc(N)c2C#N)cc1 | 786-0 renal | growth | 13.5 |

====

system: SNB-75 CNS; assay: NCI-60 one-dose screen, 48 h (100 = growth as untreated, 0 = no growth, -100 = all killed); settings: 10 µM
Compounds without any hit were thinned out: in the full panel of roughly 83,000, 20% have a hit. Activity calls are given as the source filed them. How the source made its calls: active means growth percent below 10; inactive means the rest.

| Compound | growth |
| --- | --- |
| CN1CCc2c(sc3ncnc(N/N=C/c4ccc5ccccc5c4)c23)C1 | 76.4% (inactive) |
| CC(=O)Nc1ccc(-n2cnc3cc(-c4ccc(O)cc4)ccc32)cc1F | 24.1% (inactive) |
| Cc1ccc(-c2ccc(SCC(=O)Nc3ccc(Cl)c(C(F)(F)F)c3)nn2)cc1 | -23.5% (active) |
| Cc1cc(C)nc(/N=C(\N)Nc2ccc(S(=O)(=O)Nc3nc(C)cc(C)n3)cc2)n1 | 78% (inactive) |
| CCCCCc1ccc(S(=O)(=O)N(C(C)=O)c2cc(-c3csc(N(C)C(C)=O)n3)ccc2N2CCN(C)CC2)cc1 | 73% (inactive) |
| CCCn1c(=O)c2[nH]c(-c3ccc(OCc4nc5ccc(F)cc5[nH]4)cc3)nc2n(CCC)c1=O | -23.5% (active) |
| O=c1oc2ccc(-c3ccc(F)cc3F)cc2c(=O)n1-c1ccc(F)c(Cl)c1 | -23.7% (active) |
| COc1cccc2nc(Nc3cccc(NC(=O)c4ccc(CN5CCCN(C)CC5)c(C(F)(F)F)c4)c3)ccc12 | -84.5% (active) |
| CN1CCN(c2ccc(Nc3nc(N4CCN(S(=O)(=O)c5ccc(Cl)cc5)CC4)c4sccc4n3)cc2)CC1 | 67.1% (inactive) |
| COC[C@@H](CC(C)C)N=C1NC(=O)/C(=C/c2ccc3ncsc3c2)N1 | -4.85% (active) |
| COc1ccc(-c2cc(-c3cc(C(=O)c4ccc(Br)cc4)n4ccc(C)cc34)nc(N)c2C#N)cc1 | 108% (inactive) |
| Cc1ccc(C(=O)CSc2nnc(-c3c[nH]c4ccccc34)n2-c2ccccc2)cc1 | -1.21% (active) |
| O=C(c1ccc(-n2c(=O)[nH]c3ccccc3c2=O)cc1)N1CCOCC1 | 80.9% (inactive) |
| Cc1ccc(-c2nc(Nc3ccccc3C(=O)O)c3ccccc3n2)cc1 | 15.7% (inactive) |
| CC(=O)Nc1ccc(-c2cn(-c3cccc(C(=O)Nc4cc(C(F)(F)F)cc(C(F)(F)F)c4)c3)nn2)cn1 | -6.74% (active) |
| O=C(NO)c1ccc(CNC(=O)[C@H]2Cc3c([nH]c4ccccc34)[C@H](c3ccccc3)N2)cc1 | 52.3% (inactive) |
| Brc1ccc(/C=C/c2n(Cc3ccc4ccccc4c3)c3ccccc3[n+]2Cc2ccc3ccccc3c2)cc1 | -84.3% (active) |
| CCOC(=O)c1sc(N/N=C(\C)c2ccc3c(c2)Nc2ccccc2S3)nc1C | 97.7% (inactive) |
| O=C(NCCCCC(c1ccc(F)cc1)c1ccc(F)cc1)NCCCc1cccnc1 | 53% (inactive) |
| CCCn1c(=O)c2[nH]c(-c3ccc(OCc4nc5ccc(C)cc5[nH]4)cc3)nc2n(CCC)c1=O | -38.1% (active) |
| CC1CC(c2ccc(N(C)C)cc2)=NN1c1nc(O)c(C2=c3cc(Br)ccc3=NC2=O)s1 (stereo not given) | 89.9% (inactive) |
| COc1ccc([C@H]2C(C(=O)c3ccc(Cl)cc3)C3(N[C@@H]2c2ccccc2)C(=O)Nc2ccc(Br)cc23)cc1 (stereo not given in full) | 15.6% (inactive) |
| CN1C(=O)N(C)C2SC(N/N=C/c3ccc(F)cc3)=NC21 (stereo not given) | 23.7% (inactive) |
| N#Cc1ccc(-c2nn(-c3ccc(C(=O)O)cc3)cc2CNc2ccc(Oc3ccccc3)cc2)cc1 | 101% (inactive) |
| N#Cc1ccc(-c2nn(-c3ccc(C(=O)O)cc3)cc2CNc2cc(Cl)cc(C(F)(F)F)c2)cc1 | 31% (inactive) |
